# cond: in isobutanol, 293.15 K
measurement name: solubility (mole fraction)

Incoming: Give its solubility (mole fraction) value. Item: c1ccc2[nH]cnc2c1
Outgoing: 0.0947

###

# cond: in sec-butanol, 308.15 K
measurement name: solubility (mole fraction)
Give a plain numeric answer without units written out.

Incoming: solubility (mole fraction) for c1ccc2[nH]cnc2c1 ?
Outgoing: 0.127

###

# cond: in sec-butanol, 298.15 K
measurement name: solubility (mole fraction)

Incoming: Any idea what its solubility (mole fraction) is? The compound is c1ccc2[nH]cnc2c1
Outgoing: 0.11

###

# cond: in ethanol, 283.15 K
measurement name: solubility (mole fraction)

Incoming: What does the record list as solubility (mole fraction) for c1ccc2[nH]cnc2c1 ?
Outgoing: 0.0767
